System: PC-9 (EGFR dE746-A750)
Test: Growth inhibition GI50 in vitro (CCK8/MTT, 72 h)
Type: cell-based, human
Conditions: Homo sapiens; Table 13, 72 h; read-out: Range of GI50 PC-9 (EGFR dE746-A750)
Listed next: entries and their corresponding GI50.

// below: answered compounds
{"columns": ["compound", "result_value"],
 "data": [
  ["C=CC(=O)Nc1cc(Nc2cc(Nc3cc(F)cc(C(F)(F)F)c3)ncn2)c(OC)cc1N(C)CCN(C)C [Compound 230]", "< 10 nM"],
  ["C=CC(=O)Nc1cc(Nc2cc(N(C)c3cc(OC)c(Cl)cc3Cl)ncn2)c(OC)cc1N(C)CCN(C)C [Compound 249]", "< 10 nM"],
  ["C=CC(=O)Nc1cc(Nc2cc(Nc3cc(C(F)(F)F)ccc3OC)ncn2)c(OC)cc1N(C)CCN(C)C [Compound 233]", "< 10 nM"],
  ["C=CC(=O)Nc1cc(Nc2nccc(-n3ccc4c(OCCCCCC)cccc43)n2)c(OC)cc1N(C)CCN(C)C [Compound 206]", "100 to 1000 nM"],
  ["C=CC(=O)Nc1cc(Nc2cc(Nc3ccc(OC)c(S(=O)(=O)NC)c3)ncn2)c(OC)cc1N(C)CCN(C)C [Compound 238]", "100 to 1000 nM"],
  ["C=CC(=O)Nc1cc(Nc2cc(Nc3ccc(OC(F)(F)F)c(Cl)c3)ncn2)c(OC)cc1N(C)CCN(C)C [Compound 235]", "10 to 100 nM"],
  ["C=CC(=O)Nc1cc(Nc2cc(Nc3ccc(OCC4(C)COC4)c(Cl)c3)ncn2)c(OC)cc1N(C)CCN(C)C [Compound 252]", "10 to 100 nM"],
  ["C=CC(=O)Nc1cc(Nc2cc(Nc3ccc(OCc4nccs4)c(Cl)c3)ncn2)c(OC)cc1N(C)CCN(C)C [Compound 223]", "10 to 100 nM"]
]}

Problem: What value of measured GI50 is listed for C=CC(=O)Nc1cc(Nc2cc(Nc3ccc(O)c(Cl)c3)ncn2)c(OC)cc1N(C)CCN(C)C [Compound 253] ?
Result: 10 to 100 nM

Problem: What measured GI50 goes with C=CC(=O)Nc1cc(Nc2cc(Nc3ccc(OC)c(Br)c3)ncn2)c(OC)cc1N(C)CCN(C)C [Compound 224] ?
Result: < 10 nM

Problem: Sample C=CC(=O)Nc1cc(Nc2cc(Nc3cc(OC)c(Cl)cc3Cl)ncn2)c(OC)cc1N(C)CC(=O)N1CCN(C)CC1 [Compound 241] — what was its GI50?
Result: 100 to 1000 nM

Problem: Query: GI50; subject: C=CC(=O)Nc1cc(Nc2cc(Nc3cc(OC)cc(C(F)(F)F)c3)ncn2)c(OC)cc1N(C)CCN(C)C [Compound 232]
Result: < 10 nM

Problem: Reported GI50, compound C=CC(=O)Nc1cc(Nc2cc(Nc3cc(OC)c(Cl)cc3Cl)ncn2)c(OC)cc1OCCN1CCOCC1 [Compound 243] : ____
Result: 10 to 100 nM

Problem: Query (compound): C=CC(=O)Nc1cc(Nc2cc(Nc3ccc(OCC4CCCO4)c(Cl)c3)ncn2)c(OC)cc1N(C)CCN(C)C (centres unmarked) [Compound 254] ; field requested: GI50
Result: 10 to 100 nM
